- TEST_DETAILS: clinical
- CONDITION_DETAILS: human, in vivo, iv
- Procedure: 5 a person was a with metastatic prostate cancer. A baseline blood sample was drawn from the patient and the serum was separated. An intravenous infusion of 105 grams of ascorbate was performed over 5 hours. At the and of the 5 hours another blood sample was taken and again the serum was separated. […]
EXPERIMENTAL_READOUT: concentration at 5 h (µg/mL)
Number only, in µg/mL; omit the unit.

Documented concentration at 5 h of `O=C1O[C@H]([C@@H](O)CO)C(O)=C1O` : 1650

====

- TEST_DETAILS: clinical
- CONDITION_DETAILS: human, in vivo, iv
EXPERIMENTAL_READOUT: concentration at 1 h (µg/mL)
Number only, in µg/mL; omit the unit.

Documented concentration at 1 h of O=C1O[C@H]([C@@H](O)CO)C(O)=C1O [ascorbic acid] : 1580

====

- TEST_DETAILS: clinical
- CONDITION_DETAILS: human, in vivo, iv
EXPERIMENTAL_READOUT: concentration at 5 h (µg/mL)
Number only, in µg/mL; omit the unit.

Documented concentration at 5 h of `O=C1O[C@H]([C@@H](O)CO)C(O)=C1O` : 1850
